Measured pEC50 values are reported for all entries that follow.
Target: T1, monkey thyroid-stimulating hormone receptor (TSHR) (monkey, UniProt A0A2K5X226 21-764)
T1 construct: Overexpressed on 293 cells; also called monkey TSHR
T1 sequence (A0A2K5X226 entry or part of it limits assumed, form in doubt): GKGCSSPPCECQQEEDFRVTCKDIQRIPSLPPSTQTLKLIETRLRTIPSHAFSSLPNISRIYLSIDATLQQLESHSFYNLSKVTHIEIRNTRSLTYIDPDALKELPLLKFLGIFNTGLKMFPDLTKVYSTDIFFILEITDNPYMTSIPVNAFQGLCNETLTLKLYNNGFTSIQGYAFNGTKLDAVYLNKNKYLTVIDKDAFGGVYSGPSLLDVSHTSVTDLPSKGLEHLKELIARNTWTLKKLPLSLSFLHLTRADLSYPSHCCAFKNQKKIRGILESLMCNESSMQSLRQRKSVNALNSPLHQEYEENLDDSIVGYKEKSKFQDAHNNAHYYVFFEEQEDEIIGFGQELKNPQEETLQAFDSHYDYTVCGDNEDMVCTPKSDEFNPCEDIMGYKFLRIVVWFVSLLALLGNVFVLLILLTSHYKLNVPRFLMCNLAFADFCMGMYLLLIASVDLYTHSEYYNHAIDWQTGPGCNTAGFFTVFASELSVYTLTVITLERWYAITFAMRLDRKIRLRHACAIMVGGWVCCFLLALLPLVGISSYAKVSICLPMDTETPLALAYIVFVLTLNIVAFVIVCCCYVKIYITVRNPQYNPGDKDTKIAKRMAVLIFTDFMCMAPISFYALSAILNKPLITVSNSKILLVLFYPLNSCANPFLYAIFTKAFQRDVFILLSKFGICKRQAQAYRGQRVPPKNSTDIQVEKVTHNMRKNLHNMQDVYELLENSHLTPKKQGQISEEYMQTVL
Assay: flow cytometry (FACS), 293 cells overexpressing monkey TSHR
Recall that pEC50 is obtained by taking minus log10 of the concentration measured in molar.

INSERT INTO measurements (binder, property_name, obs_value) VALUES
  ('humanized antibody cAb21-VH1-VL3 (antibody, human IgG4 S228P, kappa, V domains shown, Humanized from mAb021) VH: QVQLVQSGAEVKKPGASVKVSCKASGYTFSNYWMQWVRQAPGQGLEWMGEIDPADSYTAYSQKFKGRVTMTRDTSTSTVYMELSSLRSEDTAVYYCARRNLLRSGDYWGQGTLVTVSS VL: AIQLTQSPSSLSASVGDRVTITCSASSGITYIHWYQQKPGKAPKRWIYDSSKLASGVPARFSGSGSGTDYTLTISSLQPEDFATYYCQQWSGNPPTFGQGTKLEIKR', 'pEC50', 8.11),
  ('humanized antibody cAb21-VH2-VL2 (antibody, human IgG4 S228P, kappa, V domains shown, Humanized from mAb021) VH: QVQLVQSGAEVKKPGASVKVSCKASGYTFSNYWMQWVRQAPGQGLEWIGEIDPADSYTAYSQKFKGRATMTVDTSTSTVYMELSSLRSEDTAVYYCARRNLLRSGDYWGQGTLVTVSS VL: AIQLTQSPSSLSASVGDRVTITCSASSGITYIHWYQQKPGKAPKRWIYDSSKLASGVPSRFSGSGSGTDYTLTISSLQPEDFATYYCQQWSGNPPTFGQGTKLEIKR', 'pEC50', 8.03),
  ('humanized antibody cAb12-VH3-QG&S-VL3 (antibody, human IgG4 S228P, kappa, V domains shown, Humanized from mAb012) VH: QVQLVQSGAEVKKPGASVKVSCKASGYTFTDYYMNWVKQAPGQGLEWIGVINPYQGESSNNQKFKGRATMTVDKSTSTVYMELSSLRSEDTAVYYCARSYGYGYYFDYWGQGTTVTVSS VL: AIQLTQSPSSLSASVGDRVTITCSATSSVTYMHWYQQKPGKAPKRWIYDTSKLTSGVPPRFSGSGSGTDYTLTISSLQPEDFATYYCQQWSTYPYTFGGGTKLEIKR', 'pEC50', 8.04);

Would you kindly look at the next entry?
What value of pEC50 has been recorded for this entry: humanized antibody cAb12-VH1-QG&S-VL3 (antibody, human IgG4 S228P, kappa, V domains shown, Humanized from mAb012) VH: QVQLVQSGAEVKKPGASVKVSCKASGYTFTDYYMNWVRQAPGQGLEWMGVINPYQGESSNNQKFKGRVTMTRDTSTSTVYMELSSLRSEDTAVYYCARSYGYGYYFDYWGQGTTVTVSS VL: AIQLTQSPSSLSASVGDRVTITCSATSSVTYMHWYQQKPGKAPKRWIYDTSKLTSGVPPRFSGSGSGTDYTLTISSLQPEDFATYYCQQWSTYPYTFGGGTKLEIKR 8.09
